The measured values listed here are drawn from PubChem BioAssay AID2060615.

test system: 496974-208-R-J2-PDC complex spheroids, growth % test/control; test: Anticancer human tumor 496974-208-R-J2-PDC patient-derived pancreatic carcinoma cell line growth inhibition [CLK]; conditions: second compound 3.16 µM; first compound 0.01 µM; hits give low values;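 also: spheroids exposed to the drugs for 7 days before readout; 100% = DMSO vehicle control wells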
Exercise: state measured viability, T/C for each of the compounds provided.

## Input So what's the measured viability, T/C for this one? CCN1CCN(Cc2ccc(Nc3ncc(F)c(-c4cc(F)c5nc(C)n(C(C)C)c5c4)n3)nc2)CC1 + CNC(=O)c1ccc(Nc2nc(OC3CCCC3)c3c(-c4ccc5nc(C)oc5c4)c[nH]c3n2)c(OC)c1
## Output 71.9%

## Input Request: CCN1CCN(Cc2ccc(Nc3ncc(F)c(-c4cc(F)c5nc(C)n(C(C)C)c5c4)n3)nc2)CC1 + CN1CCN(c2cc(C(=O)Nc3cc4cc(-c5cnn(C)c5)ccc4cn3)ccn2)CC1
## Output 1.89%

## Input Request: CCc1c2c(nc3ccc(O)cc13)-c1cc3c(c(=O)n1C2)COC(=O)[C@]3(O)CC + CN1CCN(c2cc(C(=O)Nc3cc4cc(-c5cnn(C)c5)ccc4cn3)ccn2)CC1
## Output 0.62%

## Input Request: COc1c(OCCCN2CCOCC2)ccc2c3n(c(=NC(=O)c4cnc(N)nc4)nc12)CCN3 + CN1CCN(c2cc(C(=O)Nc3cc4cc(-c5cnn(C)c5)ccc4cn3)ccn2)CC1
## Output 1.42%

## Input Request: CCc1c2c(nc3ccc(O)cc13)-c1cc3c(c(=O)n1C2)COC(=O)[C@]3(O)CC + CNC(=O)c1ccc(Nc2nc(OC3CCCC3)c3c(-c4ccc5nc(C)oc5c4)c[nH]c3n2)c(OC)c1
## Output 42.6%
